melting point listing for selected compounds.
Counter-ions that a name gives are not always drawn.

// query Data request, read-out melting point, for Cc1nc2c(N)nc3ccccc3c2n1CCCCNC(=N)N (as salt: hydrochloride) [Example 1, dihydrochloride]
// result 234 to 244 °C

// query Quick one: COCCc1nc2c(N)nc3ccccc3c2n1CCOCCNC(=N)N (as salt: hydrochloride) [Example 6, dihydrochloride]
// result 188 to 192 °C

// query Quick one: CCCc1nc2c(N)nc3ccccc3c2n1CCCCNC(=N)N (as salt: hydrochloride) [Example 3]
// result 156 to 158 °C

// query Quick one: COCCc1nc2c(N)nc3ccccc3c2n1CC(C)(C)CNC(=N)N (as salt: hydrochloride) [Example 8]
// result 246 to 250 °C

// query Quick one: CCCCc1nc2c(N)nc3ccccc3c2n1CCCCNC(=N)N (as salt: hydrochloride) [Example 4]
// result 237 to 238 °C

// query Quick one: CCCCCc1nc2c(N)nc3c(c2n1CCCCNC(=N)N)CCCC3 (as salt: hydrochloride) [Example 7]
// result 178 to 180 °C

====

minimal effective concentration listing for selected molecules.
Tested on: Human peripheral blood mononuclear cells (PBMC)
Experiment: Cytokine Induction in Human Cells
Type: cell-based
Conditions: 21-24 hrs culture, ELISA, lowest concentration giving at least 2x negative control, tested 0.0001-10 micromolar, read-out: MEC to Induce Cytokine IFN-alpha
Method: Cytokine Induction in Human Cells Whole blood was obtained from healthy human donors and collected by venipuncture into vacutainer tubes or syringes containing EDTA. […] The number of viable cells were determined by counting with a Miltenyi FACS instrument (Miltenyi Biotec Inc., San Diego, Calif.) or by using a hemacytometer. […] Ten microliters of the diluted cells were then applied to the hemacytometer, and the number of viable PBMC were determined by microscopy. […]
Structures can show the parent of a compound that is named as a salt.
All answers are understood in µM, so give the number only.

[
  {
    "Molecule": "COCCc1nc2c(N)nc3ccccc3c2n1CCOCCNC(=N)N [Example 6, dihydrochloride]",
    "minimal effective concentration / µM": 0.01
  },
  {
    "Molecule": "COCCc1nc2c(N)nc3ccccc3c2n1CC(C)(C)CNC(=N)N [Example 8, hydrochloride]",
    "minimal effective concentration / µM": 0.1
  },
  {
    "Molecule": "CCc1nc2c(N)nc3ccccc3c2n1CCCCNC(=N)N [Example 2, hydrochloride]",
    "minimal effective concentration / µM": 0.1
  },
  {
    "Molecule": "CCCCCc1nc2c(N)nc3c(c2n1CCCCNC(=N)N)CCCC3 [Example 7, hydrochloride]",
    "minimal effective concentration / µM": 1
  },
  {
    "Molecule": "CC(C)Cn1cnc2c(N)nc3ccccc3c21 [imiquimod, reference compound]",
    "minimal effective concentration / µM": 10
  }
]

// query Give recorded minimal effective concentration with Human peripheral blood mononuclear cells (PBMC) for the following molecule: Cc1nc2c(N)nc3ccccc3c2n1CCCCNC(=N)N [Example 1, dihydrochloride]
// result 1

// query Quick one: CCCc1nc2c(N)nc3ccccc3c2n1CCCCNC(=N)N [Example 3, hydrochloride]
// result 0.1

// query Quick one: CCCCc1nc2c(N)nc3ccccc3c2n1CCOCCNC(=N)N [Example 5, dihydrochloride]
// result 0.01

// query Quick one: CCCCc1nc2c(N)nc3ccccc3c2n1CCCCNC(=N)N [Example 4, hydrochloride]
// result 0.01
